target: Recombinant full-length human IDO1 (Homo sapiens (Human), UniProt P14902); test: IDO1 enzymatic assay (IDO inhibitory activity); format: biochemical; conditions: 2 nM enzyme, 5 μM L-tryptophan, pH6.5, 30 min pre-incubation, NFK quantified by LCMS; mean values if measured multiple times; read-out: hIDO activity (IC50 in nM)
Sequence (P14902 whole entry): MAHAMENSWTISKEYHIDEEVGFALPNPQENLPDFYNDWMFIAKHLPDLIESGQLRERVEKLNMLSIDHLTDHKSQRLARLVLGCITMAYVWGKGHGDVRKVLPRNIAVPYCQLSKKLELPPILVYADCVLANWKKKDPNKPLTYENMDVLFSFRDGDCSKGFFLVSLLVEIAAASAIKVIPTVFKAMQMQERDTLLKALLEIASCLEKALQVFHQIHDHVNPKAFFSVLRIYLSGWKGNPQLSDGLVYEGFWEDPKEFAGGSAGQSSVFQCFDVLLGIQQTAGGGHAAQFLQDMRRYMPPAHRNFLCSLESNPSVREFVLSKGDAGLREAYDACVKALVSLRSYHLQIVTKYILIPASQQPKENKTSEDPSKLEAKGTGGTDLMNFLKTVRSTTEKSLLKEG
property-name: IC50 (nM)

Cn1cc(-c2sc3cncn3c2C(O)C2CCCCC2)cn1 (racemic)	209
OC(c1c(C2CC2)sc2cncn12)C1CCC(Cc2ccccc2)C1 (stereo not drawn)	91.2
CC1(C)CC([C@H](O)c2c(C3CC3)sc3cncn23)C1 [Example 36a]	5.03
OC(c1ccccc1)c1c(C2CC2)sc2cncn12 (racemic)	50.5
Cc1ccccc1C(O)c1c(C2CC2)sc2cncn12 (racemic)	1160

1 = CCc1sc2cncn2c1C(O)C1CCCCC1 (racemic)
2 = OC(CC1CCCCC1)c1c(-c2ccccc2)sc2cncn12 (racemic)
3 = OC(c1c(C2CC2)sc2cncn12)C1CCCC(C(F)(F)F)C1 (stereo not drawn)
4 = OC(CC1CC(F)(F)C1)c1c(C2CC2)sc2cncn12 (racemic)
Rank by IC50 (largest to smallest). Note for the reader: the ranking is given by listing the labels in the order requested.
2, 4, 3, 1

a = CCc1sc2cncn2c1C(O)CC1CCCCC1 (racemic)
b = Cc1sc2cncn2c1C(O)C1CCN(c2ccccc2)CC1 (racemic)
c = O[C@@H](CC1CCCC1)c1c(C2CC2)sc2cncn12 [Example 24a]
Sort low-to-high on IC50, please. State the ranking by listing the labels in the requested order.
a, c, b
(a: 6.63 nM, c: 20.5 nM, b: 537 nM)

a = Cc1sc2cncn2c1C(O)C1CCCC1 (racemic)
b = OC(c1c(C2CC2)sc2cncn12)C1CCC2(CCCC2)CC1 (racemic)
c = CC1(C)CCC(C)(C(O)c2c(C3CC3)sc3cncn23)C1 (stereo not drawn)
Rank the items in ascending order with respect to IC50. List each label, following the requested order.
c, b, a
(c: 18.7 nM, b: 72.1 nM, a: 149 nM)

I = CCc1sc2cncn2c1C(O)c1cn(C2CCCC2)nn1 (racemic)
II = Cc1sc2cncn2c1[C@@H](O)CC1CCCCC1
Record comparison, field IC50: mark the lower of I and II . To answer, give the label that identifies your chosen option.
II

A = OC(c1c(Cl)sc2cncn12)C1CCCCC1 (racemic)
B = CC(C)(C)C1CCC(C(O)c2c(C3CC3)sc3cncn23)CC1 (racemic)
C = OC(CC1CCC(F)(F)CC1)c1c(C2CC2)sc2cncn12 (racemic)
Arrange the 3 entries by IC50 so the values rise. # answer = labels listed in requested order
C, A, B

====

molecular target: Recombinant human TDO comprising amino acids 19-407 (Homo sapiens (Human), UniProt P48775); test: TDO2 enzymatic assay (TDO inhibitory activity); format: biochemical; conditions: 15 nM enzyme, 200 μM L-tryptophan, pH7, 30 min pre-incubation, NFK quantified by LCMS; mean values if measured multiple times; read-out: hTDO activity (IC50 in nM)
Sequence (P48775 19-406 limits assumed): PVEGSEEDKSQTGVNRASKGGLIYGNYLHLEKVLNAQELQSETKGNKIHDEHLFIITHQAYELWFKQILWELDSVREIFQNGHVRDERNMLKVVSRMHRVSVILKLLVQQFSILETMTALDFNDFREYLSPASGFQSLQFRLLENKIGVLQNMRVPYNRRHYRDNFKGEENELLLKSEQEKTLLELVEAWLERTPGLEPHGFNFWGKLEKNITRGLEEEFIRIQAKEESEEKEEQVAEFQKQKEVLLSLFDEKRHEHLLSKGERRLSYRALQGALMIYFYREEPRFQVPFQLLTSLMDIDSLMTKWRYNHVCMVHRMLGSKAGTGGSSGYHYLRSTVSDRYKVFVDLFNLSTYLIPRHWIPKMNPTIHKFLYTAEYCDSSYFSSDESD
property-name: IC50 (nM)

1 = OC(c1c(C(F)(F)F)sc2cncn12)C1CCCC1 (racemic)
2 = CC1(C(O)c2c(C3CC3)sc3cncn23)CCCCC1 (racemic)
3 = CCc1sc2cncn2c1C(O)CC1CCCCC1 (racemic)
4 = CC(CC(O)c1c(C2CC2)sc2cncn12)C1CCCCC1 (stereo not drawn)
5 = Cc1ccccc1C(O)c1c(C2CC2)sc2cncn12 (racemic)
// ascending sort on IC50 for the entries above Lab note: final answer is the ordered label list.
2, 3, 1, 4, 5

====

target: Recombinant human TDO comprising amino acids 19-407 (Homo sapiens (Human), UniProt P48775); experiment: TDO2 enzymatic assay (TDO inhibitory activity); type: biochemical; settings: 15 nM enzyme, 200 μM L-tryptophan, pH7, 30 min pre-incubation, NFK quantified by LCMS; mean values if measured multiple times; read-out: hTDO activity (IC50 in nM)
property-name: IC50 (nM)

P = OC(CC1CCCCC1)c1c(Br)sc2cncn12 (racemic)
Q = CC1(C)CC([C@H](O)c2c(C3CC3)sc3cncn23)C1 [Example 36a]
R = OC(c1cccc(C(F)(F)F)c1)c1c(C2CC2)sc2cncn12 (racemic)
Falling order of IC50, please. Please list the labels according to the requested order.
P, R, Q

====

Target: Recombinant human TDO comprising amino acids 19-407 (Homo sapiens (Human), UniProt P48775)
Assay: TDO2 enzymatic assay (TDO inhibitory activity)
Assay type: biochemical
Details: 15 nM enzyme, 200 μM L-tryptophan, pH7, 30 min pre-incubation, NFK quantified by LCMS; mean values if measured multiple times; read-out: hTDO activity (IC50 in nM)
Procedure: 2) Testing Compounds for TDO Inhibitory Activity in a TDO2 Enzymatic Assay: Recombinant human TDO comprising amino acids 19-407 with a N-terminal hexahistidine tag expressed in E. coli and purified to homogeneity is incubated at a final concentration of 15 nM in assay buffer consisting of 75 mM phosphate buffer at pH7 supplemented with 100 μM ascorbic acid, 50 U/ml Catalase, 0.01% BSA, and 0.01% Tween 20 (protocol modified from Seegers et al, JBS 2014). […]
Quick reference for IC50 among some compounds

Known IC50 results, listed for orientation:
Cc1sc2cncn2c1C(O)c1cn(C2CCCC2)nn1 (racemic)	> 10200 nM
CC(C)n1cc(C(O)c2c(C3CC3)sc3cncn23)cn1 (racemic)	> 10200 nM
Cc1sc2cncn2c1C(O)[C@H]1C[C@@H]1c1ccccc1 (single isomer, unassigned) [Example 167]	> 10200 nM

Output measured IC50 for this item: Cc1ccc(-c2sc3cncn3c2C(O)C2CCCCC2)cc1 (racemic)
1010 nM

====

target: Recombinant human TDO comprising amino acids 19-407 (Homo sapiens (Human), UniProt P48775); experiment: TDO2 enzymatic assay (TDO inhibitory activity); type: biochemical; settings: 15 nM enzyme, 200 μM L-tryptophan, pH7, 30 min pre-incubation, NFK quantified by LCMS; mean values if measured multiple times; read-out: hTDO activity (IC50 in nM)
property-name: IC50 (nM)

OC(c1ccccc1)c1c(C2CC2)sc2cncn12 (racemic) [Example 50]	989

I = OC(c1c(C2CC2)sc2cncn12)C1CCCC1c1ccccc1 (stereo not drawn) [Example 83]
II = OC(CC1CCC(C2CCC2)CC1)c1c(C2CC2)sc2cncn12 (racemic) [Example 87]
Given I and given II , which shows the smaller recorded IC50? Record your answer as the label of the chosen record.
II
(II: 3100 nM, I: 5200 nM)

====

molecular target: Recombinant human TDO comprising amino acids 19-407 (Homo sapiens (Human)); assay: TDO2 enzymatic assay (TDO inhibitory activity); assay type: biochemical; details: 15 nM enzyme, 200 μM L-tryptophan, pH7, 30 min pre-incubation, NFK quantified by LCMS; mean values if measured multiple times; read-out: hTDO activity (IC50 in nM)
property-name: IC50 (nM)

OC(c1c(-c2cccc(F)c2)sc2cncn12)C1CCCCC1 (racemic) [Example 181]	885

1 = OC(c1c(C(F)(F)F)sc2cncn12)C1CCCCC1 (racemic) [Example 63]
2 = OC(CC1CC2CCC1O2)c1c(C2CC2)sc2cncn12 (centres unmarked) [Example 41]
3 = CC1(C)CCCC1C(O)c1c(C2CC2)sc2cncn12 (centres unmarked) [Example 84]
Put the items in sequence by IC50, from largest down. Provide the labels, sequenced as the question asks.
2, 1, 3

====

target: Recombinant human TDO comprising amino acids 19-407 (Homo sapiens (Human), UniProt P48775); assay: TDO2 enzymatic assay (TDO inhibitory activity); format: biochemical; conditions: 15 nM enzyme, 200 μM L-tryptophan, pH7, 30 min pre-incubation, NFK quantified by LCMS; mean values if measured multiple times; read-out: hTDO activity (IC50 in nM)
property-name: IC50 (nM)

Below: 5 compounds and their reported IC50.
O[C@@H](CC1CCCCCC1)c1c(C2CC2)sc2cncn12 [Example 28a]	358
CC1(CC(O)c2c(C3CC3)sc3cncn23)CCC1 (racemic)	300
C=Cc1sc2cncn2c1[C@@H](O)C1CCCCC1 [Example 68a]	11.6
OC(c1c(C2CC2)sc2cncn12)C1CCC(C(F)(F)F)CC1 (racemic)	772
CC1(C(O)c2c(C(F)(F)F)sc3cncn23)CCCC1 (racemic)	54.7

I = OC(CC1CCCC1c1ccccc1)c1c(C2CC2)sc2cncn12 (stereo not shown)
II = CC(C)Cc1sc2cncn2c1C(O)CC1CCCCC1 (racemic)
III = O[C@H](c1c(C2CCC2)sc2cncn12)C1CCCCC1
IV = C=Cc1sc2cncn2c1C(O)C1CCCCC1 (racemic)
Please give the order of these compounds when sorted by IC50, largest value leading. Output the labels ranked as instructed.
I, II, III, IV
(I: 3770 nM, II: 1070 nM, III: 138 nM, IV: 29.3 nM)

1 = CCC1CCC(C(O)c2c(C3CC3)sc3cncn23)CC1 (racemic)
2 = CC1(C)CCCC(C(O)c2c(C3CC3)sc3cncn23)C1 (stereo not shown)
Consider 1 and 2 . Which of these has its IC50 at a higher number? // output: label of the selected item
1
